# Tested on: expanded OPCs
# run_description: cells
# applied_conditions: alamarBlue viability of expanded OPCs, compound at 0.1 µM, relative to DMSO control
This listing pairs compounds with measured 0.1 µM (% DMSO).
assay_readout: 0.1 µM (% DMSO)

compound: CC(COc1ccccc1)N(CCCl)Cc1ccccc1 (stereo not drawn) [Phenoxybenzamine]
result: 109.6 % DMSO
--
compound: CCCCNc1cc(C(=O)O)cc(S(N)(=O)=O)c1Oc1ccccc1 [Bumetanide]
result: 92.3 % DMSO
--
compound: CC1=C(CC(=O)O)c2cc(F)ccc2/C1=C\c1ccc([S+](C)[O-])cc1 (stereo not drawn) [Sulindac]
result: 90.8 % DMSO
--
compound: C[C@H]1c2cccc(O)c2C(=O)C2=C(O)[C@]3(O)C(=O)C(C(N)=O)=C(O)[C@@H](N(C)C)[C@@H]3[C@@H](O)[C@@H]21 [Doxycycline]
result: 95.2 % DMSO
--
compound: CN(C)c1ccc(O)c2c1C[C@H]1C[C@H]3[C@H](N(C)C)C(O)=C(C(N)=O)C(=O)[C@@]3(O)C(O)=C1C2=O [Minocycline]
result: 90.1 % DMSO
--
compound: CN/C(=N/CCSCc1nc[nH]c1C)NC#N [Cimetidine]
result: 89.7 % DMSO
--
compound: COc1cc2nc(N3CCN(C(=O)C4COc5ccccc5O4)CC3)nc(N)c2cc1OC (stereo not drawn) [Doxazosin]
result: 140.5 % DMSO
--
compound: CCn1cc(C(=O)O)c(=O)c2ccc(C)nc21 [Nalidixic Acid]
result: 93.0 % DMSO
--
compound: CCOC(=O)[C@H](CCc1ccccc1)N[C@@H](C)C(=O)N1CCC[C@H]1C(=O)O [Enalapril]
result: 90.6 % DMSO
